- test-target: Transient receptor potential cation channel subfamily A member 1 (Rattus norvegicus) (UniProt Q6RI86)
- Sequence (Q6RI86 whole entry): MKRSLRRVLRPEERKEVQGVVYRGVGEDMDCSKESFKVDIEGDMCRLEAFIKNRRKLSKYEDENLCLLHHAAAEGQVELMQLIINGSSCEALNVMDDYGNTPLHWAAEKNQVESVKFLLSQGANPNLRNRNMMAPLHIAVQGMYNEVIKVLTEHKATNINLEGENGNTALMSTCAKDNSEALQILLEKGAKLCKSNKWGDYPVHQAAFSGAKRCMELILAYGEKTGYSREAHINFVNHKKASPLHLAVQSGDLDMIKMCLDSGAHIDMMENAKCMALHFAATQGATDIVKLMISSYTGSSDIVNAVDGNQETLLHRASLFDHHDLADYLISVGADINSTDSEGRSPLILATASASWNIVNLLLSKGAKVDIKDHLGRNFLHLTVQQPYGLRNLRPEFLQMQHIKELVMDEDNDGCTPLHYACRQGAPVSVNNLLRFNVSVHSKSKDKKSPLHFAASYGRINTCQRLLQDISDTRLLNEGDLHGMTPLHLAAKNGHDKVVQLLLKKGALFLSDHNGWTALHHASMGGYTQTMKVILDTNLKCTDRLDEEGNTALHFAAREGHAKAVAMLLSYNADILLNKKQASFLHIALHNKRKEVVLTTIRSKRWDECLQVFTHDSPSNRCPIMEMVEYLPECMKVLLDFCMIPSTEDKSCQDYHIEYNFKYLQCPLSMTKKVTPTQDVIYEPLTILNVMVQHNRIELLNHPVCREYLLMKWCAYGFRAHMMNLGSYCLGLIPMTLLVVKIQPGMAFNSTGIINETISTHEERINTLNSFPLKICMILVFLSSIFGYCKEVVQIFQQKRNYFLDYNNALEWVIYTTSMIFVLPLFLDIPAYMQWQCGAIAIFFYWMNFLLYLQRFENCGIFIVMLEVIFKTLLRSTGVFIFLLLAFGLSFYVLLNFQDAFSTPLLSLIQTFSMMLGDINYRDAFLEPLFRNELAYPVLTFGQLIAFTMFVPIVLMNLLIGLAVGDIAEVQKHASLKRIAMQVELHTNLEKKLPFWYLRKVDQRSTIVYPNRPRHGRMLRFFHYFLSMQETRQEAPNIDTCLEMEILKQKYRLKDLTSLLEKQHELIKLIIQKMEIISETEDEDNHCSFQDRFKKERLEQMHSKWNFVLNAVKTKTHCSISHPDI
- measurement-protocol: Agonist activity at rat TRPA1 channel expressed in human HEK293 cells assessed as elevation in intracellular calcium flux at 100 uM relative to mustard oil
- Assay type: functional, cell-based
Let's look at some compounds and their measured Efficacy.

smiles-repr	units-of-measure	Efficacy
N#CCn1nnnc1Cc1ccc(-c2ccccc2)cc1	%	83.2
COC(=O)Cn1nnc(Cc2ccc(-c3ccccc3)cc2)n1	%	36
CN(C)C(=O)Cn1nnc(Cc2ccc(-c3ccccc3)cc2)n1	%	0
CC(C)Cn1nnnc1Cc1ccc(-c2ccccc2)cc1	%	50.8

###

- test-target: Transient receptor potential cation channel subfamily V member 1 (Homo sapiens, UniProt Q8NER1)
- Sequence (Q8NER1 whole entry): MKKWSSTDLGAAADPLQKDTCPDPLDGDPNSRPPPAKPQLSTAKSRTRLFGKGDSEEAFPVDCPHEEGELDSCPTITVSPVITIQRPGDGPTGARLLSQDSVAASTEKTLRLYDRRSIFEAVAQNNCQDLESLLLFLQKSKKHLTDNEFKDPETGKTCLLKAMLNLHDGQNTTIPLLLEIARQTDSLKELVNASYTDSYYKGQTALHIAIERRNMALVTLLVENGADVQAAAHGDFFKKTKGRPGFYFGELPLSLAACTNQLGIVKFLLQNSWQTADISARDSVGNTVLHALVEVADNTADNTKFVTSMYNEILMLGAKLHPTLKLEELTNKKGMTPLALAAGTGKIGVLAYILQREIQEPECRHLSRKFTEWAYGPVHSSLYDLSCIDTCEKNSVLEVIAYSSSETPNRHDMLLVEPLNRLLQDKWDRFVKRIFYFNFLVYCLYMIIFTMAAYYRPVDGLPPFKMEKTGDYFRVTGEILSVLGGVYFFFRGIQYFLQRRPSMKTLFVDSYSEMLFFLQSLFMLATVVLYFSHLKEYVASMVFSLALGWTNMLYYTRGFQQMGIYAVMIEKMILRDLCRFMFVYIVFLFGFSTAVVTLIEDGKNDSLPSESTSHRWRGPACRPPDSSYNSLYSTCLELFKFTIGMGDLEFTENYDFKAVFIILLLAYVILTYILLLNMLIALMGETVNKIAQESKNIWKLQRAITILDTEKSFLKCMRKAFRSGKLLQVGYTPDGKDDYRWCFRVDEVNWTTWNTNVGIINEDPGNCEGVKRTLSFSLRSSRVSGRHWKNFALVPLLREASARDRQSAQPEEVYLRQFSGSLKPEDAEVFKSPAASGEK
- measurement-protocol: Agonist activity at human TRPV1 channel expressed in human HEK293 cells assessed as elevation in intracellular calcium flux at 10 uM relative to ionomycin
- Assay type: functional, cell-based
Returns Condition met if the recorded Efficacy is greater than or equal to 2%, and Condition not met otherwise.

smiles-repr	label
CC(C)Cn1nnc(Cc2ccc(-c3ccccc3)cc2)n1	Condition met
COC(=O)Cn1nnc(Cc2ccc(-c3ccccc3)cc2)n1	Condition not met
CC(=O)Cn1nnnc1Cc1ccc(-c2ccccc2)cc1	Condition not met
N#CCn1nnnc1CNC(=O)c1ccc(-c2ccccc2)cc1	Condition met
CC(=O)Cn1nnc(Cc2ccc(-c3ccccc3)cc2)n1	Condition not met
CC(C)Cn1nnnc1Cc1ccc(-c2ccccc2)cc1	Condition met
CN(C)C(=O)Cn1nnnc1Cc1ccc(-c2ccccc2)cc1	Condition met
CC(=O)Cn1nnc(CNC(=O)c2ccc(-c3ccccc3)cc2)n1	Condition not met
N#CCn1nnc(Cc2ccc(-c3ccccc3)cc2)n1	Condition not met
COC(=O)Cn1nnc(CNC(=O)c2ccc(-c3ccccc3)cc2)n1	Condition met
